Target: human TLR7 (Homo sapiens)
Construct: expressed in transfected cells
Sequence (Q9NYK1 27-1049): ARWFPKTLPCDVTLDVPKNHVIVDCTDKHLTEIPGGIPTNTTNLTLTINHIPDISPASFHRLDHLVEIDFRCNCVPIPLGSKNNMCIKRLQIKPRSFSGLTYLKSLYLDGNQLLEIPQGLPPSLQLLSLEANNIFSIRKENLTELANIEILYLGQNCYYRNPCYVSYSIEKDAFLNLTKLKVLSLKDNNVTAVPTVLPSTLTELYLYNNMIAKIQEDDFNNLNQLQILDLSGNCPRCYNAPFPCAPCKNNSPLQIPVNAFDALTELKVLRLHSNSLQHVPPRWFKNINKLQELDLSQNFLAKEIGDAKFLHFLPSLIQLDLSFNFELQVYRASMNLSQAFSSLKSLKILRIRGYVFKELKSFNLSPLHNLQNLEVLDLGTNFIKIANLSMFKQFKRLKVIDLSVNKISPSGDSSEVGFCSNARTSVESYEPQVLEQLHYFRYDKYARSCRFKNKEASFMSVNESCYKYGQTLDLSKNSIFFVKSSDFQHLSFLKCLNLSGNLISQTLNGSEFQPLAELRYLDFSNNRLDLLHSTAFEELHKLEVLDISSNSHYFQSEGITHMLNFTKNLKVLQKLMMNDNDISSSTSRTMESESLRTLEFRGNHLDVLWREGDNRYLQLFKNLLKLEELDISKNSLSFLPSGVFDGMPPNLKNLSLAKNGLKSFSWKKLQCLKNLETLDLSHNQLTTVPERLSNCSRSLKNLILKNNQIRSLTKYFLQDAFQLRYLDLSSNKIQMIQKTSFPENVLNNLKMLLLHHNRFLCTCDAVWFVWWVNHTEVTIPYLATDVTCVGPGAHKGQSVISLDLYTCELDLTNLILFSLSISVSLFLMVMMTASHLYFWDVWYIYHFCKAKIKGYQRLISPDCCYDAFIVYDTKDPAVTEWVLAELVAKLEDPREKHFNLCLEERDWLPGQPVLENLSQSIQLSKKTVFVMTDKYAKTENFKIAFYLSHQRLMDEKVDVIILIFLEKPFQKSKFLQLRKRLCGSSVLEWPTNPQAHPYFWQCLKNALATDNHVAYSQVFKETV
Assay: Reporter gene assay (HEK293 cells with human TLR7 and NF-kB-driven luciferase reporter)
Assay type: cell-based
Settings: HEK 293 cells stably transfected with human TLR7 and NF-kB-driven luciferase reporter; 7 hours incubation; EC50 relative to activity of resiquimod set to 100%
assayReadout: EC50 (µM)

>>> experimentalvalue("CCCCCNc1nc(N)nc2ccn(Cc3cc(P(=O)(O)OC)ccc3OC)c12")
0.3

a. CCCC[C@@H](CO)Nc1nc(N)nc2ccn(Cc3cc(C(C)(C)c4nnn[nH]4)ccc3OC)c12
b. CCCCCNc1nc(N)nc2ccn(Cc3cc(/C=C/C(=O)O)ccc3OC)c12
c. CCCCCNc1nc(N)nc2ccn(Cc3cc(-c4nnn[nH]4)ccc3OC)c12
Task item: Falling order of EC50, please. Labels, ranked as asked.
Reply: b, c, a
